# System: A549/ATCC NSCLC
# experimental_details: NCI-60 one-dose screen, 48 h (100 = growth as untreated, 0 = no growth, -100 = all killed)
# test_conditions: 10 µM
The panel holds about 83,000 compounds, 20% with a hit somewhere; the sample as a whole holds those more often.
Categorized via growth: low group = under 60%, middle group = from 60% up to 90%, high group = 90% and over

Below, 6 compounds whose answers are already recorded.
CSc1nn(-c2ccccc2)c2ncnc(Oc3ccccc3)c12 : middle group
COC(=O)C(=C\c1ccc2c(c1)OCO2)/C(=C/c1ccc2c(c1)OCO2)C(=O)OC : high group
C[C@@H]1C=C2C(=O)O[C@@H]3CC[C@H](C1)[C@]23O : middle group
CCN(CC)CCC(CNc1c(C)cnc2cc(Cl)ccc12)c1ccc(Cl)cc1 (stereo not given) : middle group
C=C(C(=O)c1ccccc1)C(NC(C)(C)C)c1ccccc1 (stereo not given) : low group
O=C(c1ccc(Cl)cc1Cl)N1CCOCC1 : high group

Place this compound in its band: "COc1ccccc1CNCCN1C(=O)c2ccc3c4c(ccc(c24)C1=O)C(=O)N(CCNCc1ccccc1OC)C3=O"
low group

Place this compound in its band: "O=C(Cc1csc2nc(-c3ccc(Cl)cc3)cn12)N/N=C/c1ccccc1O"
low group

Place this compound in its band: "CCN(CCCCCCN1CC(=O)N(CCCCCCN(CC)Cc2ccccc2OC)CC1=O)Cc1ccccc1OC"
middle group

* * *

# Tested on: K-562 leukemia
# experimental_details: NCI-60 one-dose screen, 48 h (100 = growth as untreated, 0 = no growth, -100 = all killed)
# test_conditions: 10 µM
This is part of a sample that, as a whole, favours compounds with a hit. Of some 83,000 tested, about 20% had one in any assay.
measurement_type: growth (%)
API: value field is a number in %; no unit string.

I am curious: what growth value has been reported for "COc1ccc(NC(=O)Cc2nc3nc4sc(C)c(C)c4c(=O)n3[nH]2)cc1" ?
109

I am curious: what growth value has been reported for "Cc1ccc(CC#N)cc1C" ?
73.8

I am curious: what growth value has been reported for "Clc1ccc(Sc2nc(NC3CC3)nc(Sc3ccc(Cl)cc3)n2)cc1" ?
75.2

I am curious: what growth value has been reported for "Cc1ccc(NC(=O)Nc2c(Cl)cccc2Cl)cn1" ?
47.7

I am curious: what growth value has been reported for "O=C(Nc1cccc(-n2cc(-c3ccncc3)c(-c3ccc(O)c(Cl)c3)n2)c1)c1ccc(Cl)c(Cl)c1" ?
30.1

I am curious: what growth value has been reported for "Nc1cc2c(cc1Cl)-c1ccc([N+](=O)[O-])cc1/C2=N\O" ?
30.5

I am curious: what growth value has been reported for COc1cc2c(cc1OC)N(CCO)C1=C(C(=O)OC1)C2c1ccc(Cl)c(Cl)c1 (stereo not given) ?
88.7

I am curious: what growth value has been reported for "CCN(CC)CCNC(=O)c1ccc(NC(C)=O)cc1" ?
99.2

I am curious: what growth value has been reported for "Fc1cc(C(F)(F)F)ccc1-c1cncnc1NC1CCCCCC1" ?
91.3

I am curious: what growth value has been reported for "COc1ccc(/C(=C2/O[C@@H]([C@H]3COC(C)(C)O3)[C@H]3OC(C)(C)O[C@@H]23)c2cc(OC)c(OC)c(OC)c2)cc1O" ?
10.2

* * *

# System: SR leukemia
# experimental_details: NCI-60 one-dose screen, 48 h
# test_conditions: 10 µM
The panel holds about 83,000 compounds, 20% with a hit somewhere; the sample as a whole holds those more often. Activity calls are given as the source filed them. The calls were made as follows: active = growth percent below 10; inactive = the rest.
Classes to choose from: active, inactive

Below, 2 compounds whose answers are already recorded.
O=C1/C(=C\c2cn(C(=O)c3ccc(Cl)cc3)c3ccccc23)c2ccccc2N1C(=O)c1ccc(Cl)cc1 : inactive
CN(Cc1ccccc1)Cc1ccc([N+](=O)[O-])cc1I : inactive

GET /call?item= "O=C(/C=C/c1cc2ccccc2[nH]c1=O)c1ccc2c(c1)OCO2" returns the recorded outcome of this test.
inactive

GET /call?item= "NC(=O)c1ccc(-c2cccc3c(=O)nc(N4CCOCC4)oc23)cc1" returns the recorded outcome of this test.
inactive

GET /call?item= "COc1ccc(-c2nc(-c3nc4cc(Cl)c(Cl)cc4[nH]3)c3ccccn23)cc1" returns the recorded outcome of this test.
inactive

GET /call?item= "COc1ccc(Nc2nc3ccc(NC(=O)NC4CCCCC4)cc3[nH]c2=O)cc1" returns the recorded outcome of this test.
inactive

GET /call?item= "O=C(Nc1ccncc1)C(=O)c1cn(S(=O)(=O)c2cccc3ccccc23)c2ccccc12" returns the recorded outcome of this test.
inactive

GET /call?item= "COc1cc2nc(Nc3cccc(NC(C)=O)c3)nc(N)c2cc1OC" returns the recorded outcome of this test.
inactive

GET /call?item= OCC1OC(n2cnc3c(N/N=C\c4ccccn4)ncnc32)C(O)C1O (stereo not drawn) returns the recorded outcome of this test.
inactive

GET /call?item= "C[N+](C)(C)c1ncnc2nc[nH]c12" returns the recorded outcome of this test.
inactive

GET /call?item= "N#CCCN(NC(=O)OCc1ccccc1)C(=O)OCc1ccccc1" returns the recorded outcome of this test.
inactive

GET /call?item= "c1ccc(CP(Cc2ccccc2)c2ccccc2)cc1" returns the recorded outcome of this test.
inactive

GET /call?item= O=C(CC(c1ccccc1)N1CCOCC1)c1ccccc1 (stereo not drawn) returns the recorded outcome of this test.
active

GET /call?item= O=C(O)C(SC(C(=O)O)c1ccccc1)c1ccccc1 (stereo not drawn) returns the recorded outcome of this test.
inactive

GET /call?item= C=C(NC(=O)C(=C)NC(=O)c1csc(C2=NC3c4csc(n4)C4NC(=O)c5csc(n5)C(C(C)(O)C(C)O)NC(=O)C5CSC(=N5)/C(=C/C)NC(=O)C(C(C)O)NC(=O)c5csc(n5)C3(CC2)NC(=O)C(C)NC(=O)C(=C)NC(=O)C(=C)NC(=O)C(C(C)C)NC2C=Cc3c(C(C)O)cc(nc3C2O)C(=O)OC4C)n1)C(N)=O (stereo not drawn) returns the recorded outcome of this test.
active

GET /call?item= "COC(=O)[C@@H]1[C@H](O)[C@H](C)[C@H](O)[C@@](C)(O)/C=C\C=C(C)C(=O)Nc2c(C)c(OC(C)=O)c3c(c2O)C(=O)C(C)=C2OCOC(=C23)C(C)=C[C@@](C)(O)[C@H](O)[C@@H](C)[C@H]1OC(C)=O" returns the recorded outcome of this test.
inactive

GET /call?item= "O=C(Nc1cccc(-n2cc(-c3ccncc3)c(-c3cc(O)cc(Cl)c3)n2)c1)Nc1ccc(Cl)c(C(F)(F)F)c1" returns the recorded outcome of this test.
active

GET /call?item= O=C1OCC2=C1C(c1ccc(Cl)c(Cl)c1)c1cc3c(cc1N2CCO)OCCO3 (stereo not drawn) returns the recorded outcome of this test.
inactive

* * *

# System: HCT-15 colon
# experimental_details: NCI-60 one-dose screen, 48 h (100 = growth as untreated, 0 = no growth, -100 = all killed)
# test_conditions: 10 µM
This is part of a sample that, as a whole, favours compounds with a hit. Of some 83,000 tested, about 20% had one in any assay.
Hi, to clarify the labels: Fulfilled covers growth from 90% upward, Not fulfilled covers anything below 90%.

Below, 8 compounds whose answers are already recorded.
COc1ccc(-c2nc3ncccn3c2-c2nnc(-c3ccc(F)cc3)o2)cc1 : Fulfilled
O=C1/C(=C\c2ccccc2)CN(C(=O)c2ccccc2F)C/C1=C\c1ccccc1 : Not fulfilled
COc1ccc(-c2nn(-c3cccc(NC(=O)Nc4ccc(Cl)c(C(F)(F)F)c4)c3)cc2-c2ccncc2)cc1Cl : Not fulfilled
CCN(CC)CCOc1nc2cc(OC)c(OC)cc2c2c1-c1ccc(OC)cc1C2=O : Not fulfilled
CC1(C)CCC(=NNC(N)=S)CC1 : Fulfilled
COc1cc(Nc2ncnc(Nc3ccc4c(n3)NC(=O)C(C)(C)O4)n2)cc(OC)c1OC : Not fulfilled
O=C(Nc1ccncc1)C(=O)c1cn(S(=O)(=O)c2cccc(Cl)c2)c2ccccc12 : Not fulfilled
Nc1ncnc2[nH]c(=O)[nH]c12 : Fulfilled

Does growth meet or surpass 90% for "CCCCN(CCCC)c1cc(C(=O)CCCCCN)c2ccccc2n1" ?
Not fulfilled

Does growth meet or surpass 90% for C=C(C(=O)c1ccccc1)C(NC(C)(C)C)c1ccccc1 (configuration not stated) ?
Not fulfilled

Does growth meet or surpass 90% for CC1CC(=O)OC(C)C1 (configuration not stated) ?
Fulfilled

Does growth meet or surpass 90% for "CCCCCC(=O)c1ccc(OCCCN2CCN(C(=O)OCC)CC2)cc1" ?
Not fulfilled

Does growth meet or surpass 90% for "COC(=O)C(=C\c1ccc2c(c1)OCO2)/C(=C/c1ccc2c(c1)OCO2)C(=O)OC" ?
Fulfilled

Does growth meet or surpass 90% for "Cc1cccc(NC2=C(C#N)C(=O)NC3(CCCC3)S2)c1" ?
Fulfilled

These measurements were taken from PubChem BioAssay (NCI).
